Consider the following compounds and their measured IC50 readings.
Target: UniProtKB O15151
Sequence (O15151 1-125): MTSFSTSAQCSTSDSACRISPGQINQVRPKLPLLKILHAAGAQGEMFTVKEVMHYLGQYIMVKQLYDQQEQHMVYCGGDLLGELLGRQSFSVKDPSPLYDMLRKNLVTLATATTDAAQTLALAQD
Assay: Competitive fluorescence polarization assay for MDMX
Format: binding
Conditions: competitive FP assay, read-out: IC50 (MDMX)
Where a SMILES comes first, the peptide text is derived from it. Bridges are numbered along the chain shown (N, C = ends). [ ]: non-standard residue; d: D form. dPhe(4-CF3) = N[C@H](Cc1ccc(C(F)(F)F)cc1)C(=O)O; R8 = C=CCCCCCC[C@@](C)(N)C(=O)O; R5 = C=CCCC[C@@](C)(N)C(=O)O; S5 = C=CCCC[C@](C)(N)C(=O)O; Nle = CCCC[C@H](N)C(=O)O

Entry CCCC[C@H](NC(=O)[C@H](C)NC(=O)[C@H](C)NC(=O)[C@]1(C)CCCC=CCCCCCC[C@@](C)(NC(=O)[C@H](Cc2ccccc2)NC(=O)[C@H](C)NC(=O)[C@H](C)NC(=O)[C@H](C)NC(=O)[C@H](C)NC(C)=O)C(=O)N[C@@H](CCC(=O)O)C(=O)N[C@@H](Cc2ccc(O)cc2)C(=O)N[C@@H](Cc2c[nH]c3ccccc23)C(=O)N[C@@H](C)C(=O)N[C@@H](CCC(N)=O)C(=O)N[C@@H](CC(C)C)C(=O)N1)C(=O)N[C@@H](C)C(N)=O [compound 373] (Ac-AAAAF[R8]EYWAQL[S5]AA[Nle]A-NH2; staple 6-13) needs its IC50 filled in; supply it.
0.01 to 0.1 µM

Turning now to a further compound:
Name the recorded IC50 of the compound listed here: CC(=O)N[C@@H](C(=O)N[C@]1(C)CCCC=CCCC[C@](C)(C(=O)N[C@H](Cc2ccc(C(F)(F)F)cc2)C(=O)N[C@H](CCC(=O)O)C(=O)N[C@H](CCCCN)C(=O)N[C@H](CC(C)C)C(=O)N[C@H](CC(C)C)C(=O)N[C@H](CCCNC(=N)N)C(N)=O)NC(=O)[C@@H](C)NC(=O)[C@@H](Cc2ccc(O)cc2)NC(=O)[C@@H](Cc2c[nH]c3ccccc23)NC1=O)[C@H](C)O [compound 752] (Ac-[dT][R5][dW][dY][dA][R5][dPhe(4-CF3)][dE][dK][dL][dL][dR]-NH2; staple 2-6)
> 1 µM
